This collection of values is drawn from patent US12514928B2.

Test system: HCC1954 breast cancer cells
assay_details: Payload cell viability dose response (CellTiter-Glo 2.0), HCC1954 (Example 4)
Type: cell-based, human
experimental_conditions: HCC1954, 144 h
Protocol: Cell viability dose response was determined for exemplary payload compounds in HER2-amplified HCC1954 breast cancer cells and NCI-N87 gastric cancer cells. HCC1954 (American Type Culture Collection (ATCC)) breast ductal carcinoma or NCI-N87 (ATCC) gastric carcinoma cells were plated at 500 cells/well in flat bottom 384-well tissue culture plates (Corning) in a total volume of 30 μL tissue culture medium supplemented with 10% fetal bovine serum (ThermoFisher Scientific). […]
reported_metric: CTG 144 h Rm in (%)
Express your answer in %, writing the number without its unit.

Example compounds with recorded CTG 144 h Rm in:
{"item_smiles": "CO[C@H]([C@@H](C)[C@H]1O[C@]1(C)C[C@H](C)/C=C/C=C(\\C)[C@H]1O[C@@H](CC(=O)N[C@H](CCCOC(=O)N2CCN(C)CC2)C(=O)O)CC[C@@H]1C)[C@@H](C)O", "reported_value": "−88.195"}
{"item_smiles": "CO[C@H]([C@@H](C)[C@H]1O[C@]1(C)C[C@H](C)/C=C/C=C(\\C)[C@H]1O[C@@H](CC(=O)N[C@@H](COC(=O)N2CCN(C)CC2)C(=O)O)CC[C@@H]1C)[C@@H](C)O", "reported_value": "−97.151"}
{"item_smiles": "CO[C@H]([C@@H](C)[C@H]1O[C@]1(C)C[C@H](C)/C=C/C=C(\\C)[C@H]1O[C@@H](CC(=O)N[C@@H](CCCOC(=O)N2CCN(C)CC2)C(=O)O)CC[C@@H]1C)[C@@H](C)O", "reported_value": "−96.54"}
{"item_smiles": "CO[C@H]([C@@H](C)[C@H]1O[C@]1(C)C[C@H](C)/C=C/C=C(\\C)[C@H]1O[C@@H](CC(=O)N[C@@H](CCOC(=O)N2CCN(C)CC2)C(=O)O)CC[C@@H]1C)[C@@H](C)O", "reported_value": "−95.522"}

Now consider the entry below.
Fill in the blank: the reported CTG 144 h Rm in of COC(=O)[C@H](CCNC(=O)N1CCN(C)CC1)NC(=O)C[C@H]1CC[C@H](C)[C@@H](/C(C)=C/C=C/[C@@H](C)C[C@@]2(C)O[C@@H]2[C@H](C)[C@@H](OC)[C@@H](C)O)O1 is ____. −98.779

====

assay_details: Caco-2 permeability of ADC payload
Format: in vitro ADME
experimental_conditions: human, payload at 10 μM, 2 hours, apical to basolateral, read-out: Permeability Mean Caco-2 A-B Perm
Threshold check on Papp A→B at 2 h, 10 μM: at or above 10 ×10⁻⁶ cm/s gives yes, strictly below gives no.

Study these solved cases before continuing.
{"compound": "CO[C@H]([C@@H](C)[C@H]1O[C@]1(C)C[C@H](C)/C=C/C=C(\\C)[C@H]1O[C@@H](CC(=O)O)C[C@@H](OC(=O)N2CCNCC2)[C@@H]1C)[C@@H](C)O [Compound H1]", "group_label": "no"}
{"compound": "CO[C@H]([C@@H](C)[C@H]1O[C@]1(C)C[C@H](C)/C=C/C=C(\\C)[C@H]1O[C@@H](CC(=O)N[C@@H](CCCOC(=O)N2CCNCC2)C(=O)O)CC[C@@H]1C)[C@@H](C)O [Compound H4]", "group_label": "yes"}
{"compound": "CO[C@H]([C@@H](C)[C@H]1O[C@]1(C)C[C@H](C)/C=C/C=C(\\C)[C@H]1O[C@@H](CNC(=O)CCCCCOC(=O)N2CCCNCC2)CC[C@@H]1C)[C@@H](C)O [Compound H6]", "group_label": "no"}
{"compound": "CO[C@H]([C@@H](C)[C@H]1O[C@]1(C)C[C@H](C)/C=C/C=C(\\C)[C@H]1O[C@@H](CNC(=O)CCOCCOC(=O)N2CCCNCC2)CC[C@@H]1C)[C@@H](C)O [Compound H9]", "group_label": "yes"}

State whether the measured Papp A→B at 2 h, 10 μM reaches 10 ×10⁻⁶ cm/s, counting equality as reaching it, for CO[C@H]([C@@H](C)[C@H]1O[C@]1(C)C[C@H](C)/C=C/C=C(\C)[C@H]1O[C@@H](CNC(=O)CCCCCOC(=O)N2CCNCC2)CC[C@@H]1C)[C@@H](C)O [Compound H5] no
